experimental.target: MS2 coat protein, dlFG mutant (Escherichia phage MS2, UniProt P03612, del68-81insG)
test.protocol: 4 mM Mg2+; no ligand; RNA-MaP array; 100 mM Tris-HCl pH 7.5, 80 mM KCl, 4 mM MgCl2, 0.1 mg/mL BSA, 1 mM DTT, 0.01 mg/mL yeast tRNA, 0.01% Tween-20; protein 1.5 nM to 3 uM; 37 C (Table S3)
experimental.parameters: chain copies: 2; label: tethered by stalled RNA polymerase
Reported Kd values for the following binders.
Entry rule: numbers only, all in nM.

Worked set:
- binder: "Eterna 7734974 (Same State - Theophylline A) (ssRNA) RNA: AAAAUAAAUAAAACACGUAACAUGAAGGAUACCAGACAGGAAACUGUCCCUUGGCAGCCUCUACAUGAGGAUCACCCAUGUCGUG"
  Kd (nM): 246
- binder: "Eterna 6128104 (Same State NG 3) (ssRNA) RNA: GCUCGAUGAGCUGUCUACAUGAGGAUCACCCAUGUAGAUGGGCAGGAUAUUUACGUGCUUUAUGUAGAGAAGGGCCCAUCGAGC"
  Kd (nM): 191

Qu. Suppose we examine the binder Eterna 5862108 (Exclusion NG 1) (ssRNA) RNA: UCACGGGAUUGAGGAUAUAUAUUAAUUUUUUUUAUAGAAGGCAAAAUGUUAGAUUAUUCACUAUACAUGAGGAUCACCCAUGUU ; what Kd value has been reported?
Ans. 25.5

Qu. Suppose we examine the binder Eterna 12242 (Exclusion 3) (ssRNA) RNA: GACUAGGCAGGAUAUACAUGAGGAUCACCCAUGUGUCUGCGAUAGGCACGUGAUUACUGUAGAAGGGCCUUGAC ; what Kd value has been reported?
Ans. 330

Qu. Suppose we examine the binder Eterna 11866 (Sensor v3, turn-off variant 2) (ssRNA) RNA: CUUAGCCUAAAAUCACGCAAGCUUUCUGCUUGUCUUAAGACAUGAGGAUCACCCAUGUCCGGGCUGAACUUAUGGAA ; what Kd value has been reported?
Ans. 18.5
